Test: NCI Yeast Anticancer Drug Screen. Data for the cln2 rad14 strain (AID 165);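 also: 0% = growth equal to vehicle treated cultures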
Conditions: S. cerevisiae cln2 rad14 strain, at 50.0 µM (retest, dose inferred, filed as 5.0)
This is part of a sample that, as a whole, favours compounds with a hit. Of some 79,000 tested, about 15% had one in any assay. Activity calls are given as the source filed them. Rule as the data show it: active = growth inhibition above about 70%; inactive = the rest.
Classes used: 1.0 for active, 0.0 for inactive

[
  {
    "molecule": "COc1ccc2nc3cc(Cl)ccc3c(Nc3nccs3)c2c1",
    "category_label": 1.0
  },
  {
    "molecule": "O=c1cc(-c2ccccc2)oc(-c2ccccc2)c1",
    "category_label": 0.0
  },
  {
    "molecule": "O=[N+]([O-])c1ccc(S)c(Cl)c1",
    "category_label": 0.0
  },
  {
    "molecule": "Oc1ccc(N=Nc2ccccc2)c(O)c1.Oc1ccc(N=Nc2ccccc2)c(O)c1.[Cu]",
    "category_label": 1.0
  },
  {
    "molecule": "CCC(O)C(O)(c1ccccc1)c1nc2ccccc2s1 (stereo unspecified)",
    "category_label": 0.0
  },
  {
    "molecule": "O=C(Nc1nc2ccc([N+](=O)[O-])cc2s1)C(=O)C(C1OC(=O)c2ccccc21)[N+](=O)[O-] (stereo unspecified)",
    "category_label": 0.0
  }
]

* * *

Assay: NCI Yeast Anticancer Drug Screen. Data for the rad50 strain (AID 155);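 also: 0% = growth of vehicle-only cultures of the same strain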
Details: S. cerevisiae rad50 strain growth inhibition; at 50.0 µM; hits give high values
About 79,000 compounds went through this panel and 15% of them were active in at least one assay; those are over-represented in the sample as a whole.
Below is a list of entries, each paired with its recorded growth inhibition value.
measure_name: growth inhibition (%)

[
  {
    "compound": "O=C(/C=C\\c1ccccc1)/C=C/c1ccccc1",
    "measure_name": "growth inhibition",
    "observed_measurement": 40.5
  },
  {
    "compound": "O=C(C1=Cc2ccccc2OC1)N1CCN(c2cccc(Cl)c2)CC1",
    "measure_name": "growth inhibition",
    "observed_measurement": 49.3
  },
  {
    "compound": "CCCCCCCOC(=O)CSC#N",
    "measure_name": "growth inhibition",
    "observed_measurement": 99.2
  },
  {
    "compound": "O=C1C(Cl)C(c2cc(Br)cc(Br)c2O)N1n1cnc2ccccc2c1=O (stereo unspecified)",
    "measure_name": "growth inhibition",
    "observed_measurement": 89.8
  },
  {
    "compound": "Nc1nc(N)c(C(=O)SCc2ccccc2)nc1Cl",
    "measure_name": "growth inhibition",
    "observed_measurement": 66
  },
  {
    "compound": "O=C1c2ccccc2-c2cc([N+](=O)[O-])c([N+](=O)[O-])cc21",
    "measure_name": "growth inhibition",
    "observed_measurement": 93.2
  },
  {
    "compound": "O=C1Nc2c(Cl)cc(Cl)cc2/C1=N/N=C/c1ccccc1O",
    "measure_name": "growth inhibition",
    "observed_measurement": 3.5
  },
  {
    "compound": "CCCCN(CCCC)CCC(O)c1cc2c(c3ccccc13)CCCC2 (stereo unspecified)",
    "measure_name": "growth inhibition",
    "observed_measurement": 99.4
  },
  {
    "compound": "O=C1C=CC(=O)c2cc(Sc3ccccc3)c(=O)ccc21",
    "measure_name": "growth inhibition",
    "observed_measurement": 81.2
  },
  {
    "compound": "CC1=NN(C(=O)c2ccncc2)C(=O)C1N=Nc1ccc(C)c([N+](=O)[O-])c1 (stereo unspecified)",
    "measure_name": "growth inhibition",
    "observed_measurement": 47.5
  },
  {
    "compound": "O=C(CC(=O)c1ccncc1)c1ccccc1",
    "measure_name": "growth inhibition",
    "observed_measurement": 97.2
  }
]
